Data provenance is patent US5292737A.

# targetEntity: PKC isoenzyme α (Homo sapiens)
# Construct: made in house; host or cells: baculovirus-insect cell expression system
# assayProtocol: Protein kinase C inhibition assay, PKC isoenzyme α
# Format: biochemical
# conditionSet: read-out: IC50 PKC α
pIC50: −log10 of the molar value.
measuredParameter: pIC50

CCCCCCCCCCCCCCCCNS(=O)(=O)c1ccc(N=C2C=C(Nc3ccc(S(=O)(=O)NCCCCCCCCCCCCCCCC)cc3)C(=O)c3ccccc32)cc1 [Compound 6o]    4.00
Cc1cc(C)nc(NC(=O)c2ccc(N=C3C=C(Nc4ccc(C(=O)Nc5nc(C)cc(C)n5)cc4)C(=O)c4ccccc43)cc2)n1    4.25

(A) CCCCCCCCCCCCCCCCNS(=O)(=O)c1ccc(N=C2C=C(Nc3ccc(S(=O)(=O)NCCCCCCCCCCCCCCCC)cc3)C(=O)c3ccccc32)cc1 [Compound 3o]
(B) Cc1ccnc(NS(=O)(=O)c2ccc(N=C3C=C(Nc4ccc(S(=O)(=O)Nc5nccc(C)n5)cc4)C(=O)c4ccccc43)cc2)n1 [Compound 3f]
Lab note: record which item had the higher pIC50, A or B . # reply format: chosen label
B
(B: 4.55, A: 3.93)

====

# targetEntity: PKC isoenzyme βII (Homo sapiens, UniProt P05771)
# Construct: made in house; host or cells: baculovirus-insect cell expression system
# Sequence (P05771 1-673 isoform P05771-2): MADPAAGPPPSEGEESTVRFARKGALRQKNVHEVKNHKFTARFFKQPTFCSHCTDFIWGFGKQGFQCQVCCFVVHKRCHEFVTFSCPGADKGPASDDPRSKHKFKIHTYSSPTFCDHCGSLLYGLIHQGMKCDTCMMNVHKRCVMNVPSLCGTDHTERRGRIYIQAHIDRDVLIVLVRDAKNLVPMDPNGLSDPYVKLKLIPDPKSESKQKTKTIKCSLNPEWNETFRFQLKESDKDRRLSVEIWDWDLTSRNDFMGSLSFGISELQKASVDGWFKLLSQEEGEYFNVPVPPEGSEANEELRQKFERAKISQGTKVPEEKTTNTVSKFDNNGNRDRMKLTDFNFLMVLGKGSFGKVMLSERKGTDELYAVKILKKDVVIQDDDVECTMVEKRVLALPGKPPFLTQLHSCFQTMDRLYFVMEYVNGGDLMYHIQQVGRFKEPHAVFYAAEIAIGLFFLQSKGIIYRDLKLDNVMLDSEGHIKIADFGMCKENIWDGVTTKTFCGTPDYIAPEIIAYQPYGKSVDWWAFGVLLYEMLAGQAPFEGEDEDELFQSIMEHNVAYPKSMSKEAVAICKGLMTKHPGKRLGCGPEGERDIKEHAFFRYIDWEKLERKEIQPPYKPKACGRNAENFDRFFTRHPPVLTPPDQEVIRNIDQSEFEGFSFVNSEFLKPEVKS
# assayProtocol: Protein kinase C inhibition assay, PKC isoenzyme βII
# Assay type: biochemical
# conditionSet: read-out: IC50 PKC βII
pIC50: −log10 of the molar value.
measuredParameter: pIC50

Sample answers from the record:
CCCCCCCCCCCCCCCCNS(=O)(=O)c1ccc(N=C2C=C(Nc3ccc(S(=O)(=O)NCCCCCCCCCCCCCCCC)cc3)C(=O)c3ccccc32)cc1 [Compound 6o]    4.00
Cc1noc(NS(=O)(=O)c2ccc(N=C3C=C(Nc4ccc(S(=O)(=O)Nc5onc(C)c5C)cc4)C(=O)c4ccccc43)cc2)c1C [Compound 3b]    4.54
O=C1C(Nc2ccc(S(=O)(=O)Nc3ccccn3)cc2)=CC(=Nc2ccc(S(=O)(=O)Nc3ccccn3)cc2)c2ccccc21 [Compound 3i]    4.59

(1) COc1cc(NS(=O)(=O)c2ccc(N=C3C=C(Nc4ccc(S(=O)(=O)Nc5cc(OC)nc(OC)n5)cc4)C(=O)c4ccccc43)cc2)nc(OC)n1 [Compound 3g]
(2) Cc1cc(C)nc(NC(=O)c2ccc(N=C3C=C(Nc4ccc(C(=O)Nc5nc(C)cc(C)n5)cc4)C(=O)c4ccccc43)cc2)n1
(3) Cc1cc(C)nc(NS(=O)(=O)c2cccc(N=C3C=C(Nc4cccc(S(=O)(=O)Nc5cc(C)cc(C)n5)c4)C(=O)c4ccccc43)c2)c1
Rank descending by pIC50. Enter labels, ranked according to the request.
1, 3, 2

====

# targetEntity: PKC isoenzyme βII (Homo sapiens)
# Construct: made in house; host or cells: baculovirus-insect cell expression system
# assayProtocol: Protein kinase C inhibition assay, PKC isoenzyme βII
# Assay type: biochemical
# conditionSet: IC50 PKC βII
measuredParameter: IC50 (µM)
# number only, unit µM dropped from output

Quick one: give measured IC50 for O=C1C(Nc2ccc(S(=O)(=O)NCCNc3ccc([N+](=O)[O-])cn3)cc2)=CC(=Nc2ccc(S(=O)(=O)NCCNc3ccc([N+](=O)[O-])cn3)cc2)c2ccccc21
89

====

# targetEntity: PKC isoenzyme ζ (Homo sapiens, UniProt Q05513)
# Construct: made in house; host or cells: baculovirus-insect cell expression system
# Sequence (Q05513 whole entry): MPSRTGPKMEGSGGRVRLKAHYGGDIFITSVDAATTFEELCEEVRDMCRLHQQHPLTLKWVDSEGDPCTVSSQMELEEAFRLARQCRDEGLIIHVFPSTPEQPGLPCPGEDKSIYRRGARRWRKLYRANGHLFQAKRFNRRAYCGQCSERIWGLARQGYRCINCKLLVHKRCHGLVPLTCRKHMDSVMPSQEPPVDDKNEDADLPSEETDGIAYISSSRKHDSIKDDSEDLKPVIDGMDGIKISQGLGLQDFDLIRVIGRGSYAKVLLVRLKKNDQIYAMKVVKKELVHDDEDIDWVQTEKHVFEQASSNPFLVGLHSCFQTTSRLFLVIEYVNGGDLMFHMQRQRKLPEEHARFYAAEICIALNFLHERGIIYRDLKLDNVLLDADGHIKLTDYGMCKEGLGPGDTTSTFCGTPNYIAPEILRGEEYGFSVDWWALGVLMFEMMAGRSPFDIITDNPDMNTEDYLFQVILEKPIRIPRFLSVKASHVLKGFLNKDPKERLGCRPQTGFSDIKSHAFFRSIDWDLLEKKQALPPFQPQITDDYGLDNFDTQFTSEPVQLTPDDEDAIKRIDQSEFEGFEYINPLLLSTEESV
# assayProtocol: Protein kinase C inhibition assay, PKC isoenzyme ζ
# Type: biochemical
# conditionSet: IC50 PKC .zeta.
# Experimental: A protein kinase C (PKC) assay is designed to duplicate the in vivo conditions required for protein kinase C function. Therefore, pH, salt and cofactor concentrations are similar to physiologic levels. Either lysine rich histone H1 (H1) or Myelin basic protein (Mbp) are used in the assay as the phosphorylation acceptor-protein because they are readily available and serve as good substrates for protein kinase C. Enzyme was prepared from baculovirus-insect cell expression systems. […]
measuredParameter: IC50

Return IC50 (reported value) for this molecule: O=C1C(Nc2ccc(S(=O)(=O)NCCNc3ccc([N+](=O)[O-])cn3)cc2)=CC(=Nc2ccc(S(=O)(=O)NCCNc3ccc([N+](=O)[O-])cn3)cc2)c2ccccc21 [Compound 3ac]
> 150 µM

====

# targetEntity: PKC isoenzyme γ (Homo sapiens, UniProt P05129)
# Construct: made in house; host or cells: baculovirus-insect cell expression system
# assayProtocol: Protein kinase C inhibition assay, PKC isoenzyme γ
# Format: biochemical
# conditionSet: read-out: IC50 PKC γ
measuredParameter: IC50 (µM)

Cc1cc(C)nc(NS(=O)(=O)c2cc(N=C3C=C(Nc4ccc(C)c(S(=O)(=O)Nc5cc(C)cc(C)n5)c4)C(=O)c4ccccc43)ccc2C)c1 [Compound 3ag]    20
Cc1noc(NS(=O)(=O)c2ccc(N=C3C=C(Nc4ccc(S(=O)(=O)Nc5onc(C)c5C)cc4)C(=O)c4ccccc43)cc2)c1C [Compound 3b]    25
O=C1C(Nc2ccc(S(=O)(=O)Nc3ncccn3)cc2)=CC(=Nc2ccc(S(=O)(=O)Nc3ncccn3)cc2)c2ccccc21 [Compound 3k]    24

====

Entries and their IC50 values follow.
# targetEntity: PKC isoenzyme δ (Homo sapiens, UniProt Q05655)
# Construct: made in house; host or cells: baculovirus-insect cell expression system
# Sequence (Q05655 whole entry): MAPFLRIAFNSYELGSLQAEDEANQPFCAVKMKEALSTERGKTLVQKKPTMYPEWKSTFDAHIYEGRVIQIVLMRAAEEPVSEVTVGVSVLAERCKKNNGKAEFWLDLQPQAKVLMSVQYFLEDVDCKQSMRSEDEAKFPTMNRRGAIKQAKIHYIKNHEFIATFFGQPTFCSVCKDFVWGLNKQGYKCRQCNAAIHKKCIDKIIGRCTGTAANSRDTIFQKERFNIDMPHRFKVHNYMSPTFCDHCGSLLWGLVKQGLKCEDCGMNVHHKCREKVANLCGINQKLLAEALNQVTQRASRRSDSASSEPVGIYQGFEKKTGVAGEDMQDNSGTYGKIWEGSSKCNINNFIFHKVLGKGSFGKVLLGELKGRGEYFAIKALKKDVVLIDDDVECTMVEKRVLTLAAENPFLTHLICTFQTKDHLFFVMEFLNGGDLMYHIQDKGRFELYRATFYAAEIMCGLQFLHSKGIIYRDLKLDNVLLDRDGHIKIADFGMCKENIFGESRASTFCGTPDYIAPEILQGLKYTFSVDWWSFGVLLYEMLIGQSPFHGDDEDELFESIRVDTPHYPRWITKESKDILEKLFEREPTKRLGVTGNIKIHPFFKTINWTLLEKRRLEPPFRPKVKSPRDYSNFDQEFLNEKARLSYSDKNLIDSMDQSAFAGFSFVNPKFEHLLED
# assayProtocol: Protein kinase C inhibition assay, PKC isoenzyme δ
# Type: biochemical
# conditionSet: read-out: IC50 PKC δ
# Description: A protein kinase C (PKC) assay is designed to duplicate the in vivo conditions required for protein kinase C function. Therefore, pH, salt and cofactor concentrations are similar to physiologic levels. Either lysine rich histone H1 (H1) or Myelin basic protein (Mbp) are used in the assay as the phosphorylation acceptor-protein because they are readily available and serve as good substrates for protein kinase C. Enzyme was prepared from baculovirus-insect cell expression systems. […]

N=C(N)NS(=O)(=O)c1ccc(N=C2C=C(Nc3ccc(S(=O)(=O)NC(=N)N)cc3)C(=O)c3ccccc32)cc1 [Compound 3ab]    > 150 µM
Cc1cc(C)nc(NS(=O)(=O)c2ccc(N=C3C=C(Nc4ccc(S(=O)(=O)Nc5cc(C)cc(C)n5)cc4)C(=O)c4ccccc43)cc2)c1 [Compound 3aj]    > 150 µM

Could you now look at the following compound, please?
Consider the compound COc1cnc(NS(=O)(=O)c2ccc(N=C3C=C(Nc4ccc(S(=O)(=O)Nc5ncc(OC)cn5)cc4)C(=O)c4ccccc43)cc2)nc1 [Compound 6h] . State its measured IC50.
> 150 µM

====

# targetEntity: PKC isoenzyme βII (Homo sapiens, UniProt P05771)
# Construct: made in house; host or cells: baculovirus-insect cell expression system
# assayProtocol: Protein kinase C inhibition assay, PKC isoenzyme βII
# Type: biochemical
# conditionSet: read-out: IC50 PKC βII
measuredParameter: IC50 (µM)

Use these answered entries as a reference point.
COc1cnc(NS(=O)(=O)c2ccc(N=C3C=C(Nc4ccc(S(=O)(=O)Nc5ncc(OC)cn5)cc4)C(=O)c4ccccc43)cc2)nc1 [Compound 6h]    97
COc1ccc(NS(=O)(=O)c2ccc(N=C3C=C(Nc4ccc(S(=O)(=O)Nc5ccc(OC)nn5)cc4)C(=O)c4ccccc43)cc2)nn1 [Compound 6j]    47
O=C1C(Nc2ccc(S(=O)(=O)Nc3cnc4ccccc4n3)cc2)=CC(=Nc2ccc(S(=O)(=O)Nc3cnc4ccccc4n3)cc2)c2ccccc21 [Compound 3m]    22

(I) Cc1nnc(NS(=O)(=O)c2ccc(N=C3C=C(Nc4ccc(S(=O)(=O)Nc5nnc(C)s5)cc4)C(=O)c4ccccc43)cc2)s1 [Compound 6e]
(II) COc1ccc(NS(=O)(=O)c2ccc(N=C3C=C(Nc4ccc(S(=O)(=O)Nc5ccc(OC)nn5)cc4)C(=O)c4ccccc43)cc2)nn1 [Compound 3j]
(III) O=C1C(Nc2ccc(S(=O)(=O)NCc3ccccn3)cc2)=CC(=Nc2ccc(S(=O)(=O)NCc3ccccn3)cc2)c2ccccc21 [Compound 3n]
(IV) Cc1cc(C)nc(NS(=O)(=O)c2ccc(N=C3C=C(Nc4ccc(S(=O)(=O)Nc5nc(C)cc(C)n5)cc4)C(=O)c4ccccc43)cc2)n1 [Compound 6c]
Your job: order these 4 records by IC50, ascending. Reply: labels, ordered per the request.
IV, I, II, III
(IV: 14 µM, I: 24 µM, II: 45 µM, III: 141 µM)

====

# System: MCF-7 human breast tumor cell line
# assayProtocol: Human Tumor Cell Growth Inhibition (3H-thymidine incorporation)
# Type: cell-based
# conditionSet: Homo sapiens, MCF7, MCF-7, 24 hrs
pIC50: −log10 of the molar value.
measuredParameter: pIC50

Some solved cases for reference:
Cc1cc(C)nc(NC(=O)c2ccc(N=C3C=C(Nc4ccc(C(=O)Nc5nc(C)cc(C)n5)cc4)C(=O)c4ccccc43)cc2)n1 [Compound 3ai]    7.52
O=C1C(Nc2ccc(S(=O)(=O)NCc3ccccn3)cc2)=CC(=Nc2ccc(S(=O)(=O)NCc3ccccn3)cc2)c2ccccc21 [Compound 3n]    5.99
COc1cc(NS(=O)(=O)c2ccc(N=C3C=C(Nc4ccc(S(=O)(=O)Nc5cc(OC)nc(OC)n5)cc4)C(=O)c4ccccc43)cc2)nc(OC)n1 [Compound 3g]    4.78
COc1ccc(NS(=O)(=O)c2ccc(N=C3C=C(Nc4ccc(S(=O)(=O)Nc5ccc(OC)nn5)cc4)C(=O)c4ccccc43)cc2)nn1 [Compound 3j]    4.79
Cc1cc(NS(=O)(=O)c2ccc(N=C3C=C(Nc4ccc(S(=O)(=O)Nc5cc(C)nc(C)n5)cc4)C(=O)c4ccccc43)cc2)nc(C)n1 [Compound 3d]    4.76

(I) O=C1C(Nc2ccc(S(=O)(=O)Nc3cnc4ccccc4n3)cc2)=CC(=Nc2ccc(S(=O)(=O)Nc3cnc4ccccc4n3)cc2)c2ccccc21 [Compound 3m]
(II) COc1cc(NS(=O)(=O)c2ccc(N=C3C=C(Nc4ccc(S(=O)(=O)Nc5cc(OC)cc(OC)c5)cc4)C(=O)c4ccccc43)cc2)cc(OC)c1 [Compound 3af]
Which of these two has the smaller recorded pIC50: I or II ? Use the label to indicate which entry you chose.
I
(I: 4.75, II: 6.08)
